- Test system: Hoylesella oralis
- method summary: Antimicrobial activity against Prevotella oralis assessed as percent resistant isolates after 48 hrs by agar dilution method
- Type: functional
readout name: Activity (%)

compound: O=C(N[C@H](CO)[C@H](O)c1ccc([N+](=O)[O-])cc1)C(Cl)Cl [CHLORAMPHENICOL]
numeric value: 0

compound: Cc1ncc([N+](=O)[O-])n1CCO [METRONIDAZOLE]
numeric value: 0

compound: CO[C@@]1(NC(=O)C2SC(=C(C(N)=O)C(=O)O)S2)C(=O)N2C(C(=O)O)=C(CSc3nnnn3C)CS[C@@H]21 (stereo partly drawn) [CEFOTETAN]
numeric value: 17

compound: CCN1CCN(C(=O)N[C@@H](C(=O)N[C@@H]2C(=O)N3[C@@H]2SC(C)(C)[C@@H]3C(=O)O)c2ccccc2)C(=O)C1=O [PIPERACILLIN]
numeric value: 11

compound: C[C@@H](O)[C@H]1C(=O)N2C(C(=O)O)=C(SCCNC=N)C[C@H]12 [IMIPENEM ANHYDROUS]
numeric value: 0

compound: C[C@@H](O)[C@H]1C(=O)N2C(C(=O)O)=C(S[C@@H]3CN[C@H](C(=O)N(C)C)C3)[C@H](C)[C@H]12 [MEROPENEM]
numeric value: 0

compound: CO[C@@]1(NC(=O)Cc2cccs2)C(=O)N2C(C(=O)O)=C(COC(N)=O)CS[C@@H]21 [CEFOXITIN]
numeric value: 0

compound: COc1c(N2C[C@@H]3CCCN[C@@H]3C2)c(F)cc2c(=O)c(C(=O)O)cn(C3CC3)c12 [MOXIFLOXACIN]
numeric value: 11

====

- Test system: Bifidobacterium adolescentis
- method summary: Antimicrobial activity against Bifidobacterium adolescentis after 48 hrs by agar dilution method
- Type: functional
// values below are reported MIC50

compound: CCN1CCN(C(=O)N[C@@H](C(=O)N[C@@H]2C(=O)N3[C@@H]2SC(C)(C)[C@@H]3C(=O)O)c2ccccc2)C(=O)C1=O [PIPERACILLIN]
MIC50: 1 µg/mL
--
compound: Cc1ncc([N+](=O)[O-])n1CCO [METRONIDAZOLE]
MIC50: 16 µg/mL
--
compound: O=C(N[C@H](CO)[C@H](O)c1ccc([N+](=O)[O-])cc1)C(Cl)Cl [CHLORAMPHENICOL]
MIC50: 1 µg/mL
--
compound: COc1c(N2C[C@@H]3CCCN[C@@H]3C2)c(F)cc2c(=O)c(C(=O)O)cn(C3CC3)c12 [MOXIFLOXACIN]
MIC50: 1 µg/mL

====

Listed here: items and their measured Activity.
- Tested on: Finegoldia magna
- method summary: Antimicrobial activity against Finegoldia magna assessed as percent resistant isolates after 48 hrs by agar dilution method
- Assay type: functional

molecule: O=C(N[C@H](CO)[C@H](O)c1ccc([N+](=O)[O-])cc1)C(Cl)Cl
Activity [%]: 0
--
molecule: CCC[C@@H]1C[C@@H](C(=O)N[C@@H]([C@H]2O[C@H](SC)[C@H](O)[C@@H](O)[C@H]2O)[C@H](C)Cl)N(C)C1
Activity [%]: 13
--
molecule: CCN1CCN(C(=O)N[C@@H](C(=O)N[C@@H]2C(=O)N3[C@@H]2SC(C)(C)[C@@H]3C(=O)O)c2ccccc2)C(=O)C1=O
Activity [%]: 0
--
molecule: CO[C@@]1(NC(=O)C2SC(=C(C(N)=O)C(=O)O)S2)C(=O)N2C(C(=O)O)=C(CSc3nnnn3C)CS[C@@H]21 (stereo not given in full)
Activity [%]: 0
--
molecule: CO[C@@]1(NC(=O)Cc2cccs2)C(=O)N2C(C(=O)O)=C(COC(N)=O)CS[C@@H]21
Activity [%]: 0

====

Reported Activity values for the following compounds.
- Test system: Bifidobacterium sp.
- method summary: Antimicrobial activity against Bifidobacterium sp. assessed as percent susceptible isolates after 48 hrs by agar dilution method
- Format: functional
readout name: Activity (%)

compound: Cc1ncc([N+](=O)[O-])n1CCO
numeric value: 46
--
compound: O=C(N[C@H](CO)[C@H](O)c1ccc([N+](=O)[O-])cc1)C(Cl)Cl
numeric value: 92
--
compound: COc1c(N2C[C@@H]3CCCN[C@@H]3C2)c(F)cc2c(=O)c(C(=O)O)cn(C3CC3)c12
numeric value: 92
--
compound: C[C@@H](O)[C@H]1C(=O)N2C(C(=O)O)=C(S[C@@H]3CN[C@H](C(=O)N(C)C)C3)[C@H](C)[C@H]12
numeric value: 92
--
compound: CCN1CCN(C(=O)N[C@@H](C(=O)N[C@@H]2C(=O)N3[C@@H]2SC(C)(C)[C@@H]3C(=O)O)c2ccccc2)C(=O)C1=O
numeric value: 92
--
compound: C[C@@H](O)[C@H]1C(=O)N2C(C(=O)O)=C(SCCNC=N)C[C@H]12 [IMIPENEM ANHYDROUS]
numeric value: 100
--
compound: CO[C@@]1(NC(=O)Cc2cccs2)C(=O)N2C(C(=O)O)=C(COC(N)=O)CS[C@@H]21
numeric value: 92
--
compound: CCC[C@@H]1C[C@@H](C(=O)N[C@@H]([C@H]2O[C@H](SC)[C@H](O)[C@@H](O)[C@H]2O)[C@H](C)Cl)N(C)C1
numeric value: 85
--
compound: CO[C@@]1(NC(=O)C2SC(=C(C(N)=O)C(=O)O)S2)C(=O)N2C(C(=O)O)=C(CSc3nnnn3C)CS[C@@H]21 (some centres undefined)
numeric value: 85

====

- System: Schaalia meyeri
- method summary: Antimicrobial activity against Actinomyces meyeri after 48 hrs by agar dilution method
- Type: functional
readout name: MIC90

compound: COc1c(N2C[C@@H]3CCCN[C@@H]3C2)c(F)cc2c(=O)c(C(=O)O)cn(C3CC3)c12 [MOXIFLOXACIN]
result: 2 µg/mL

compound: CO[C@@]1(NC(=O)C2SC(=C(C(N)=O)C(=O)O)S2)C(=O)N2C(C(=O)O)=C(CSc3nnnn3C)CS[C@@H]21 (some centres undefined) [CEFOTETAN]
result: 64 µg/mL

compound: C[C@@H](O)[C@H]1C(=O)N2C(C(=O)O)=C(S[C@@H]3CN[C@H](C(=O)N(C)C)C3)[C@H](C)[C@H]12 [MEROPENEM]
result: 2 µg/mL

compound: CCN1CCN(C(=O)N[C@@H](C(=O)N[C@@H]2C(=O)N3[C@@H]2SC(C)(C)[C@@H]3C(=O)O)c2ccccc2)C(=O)C1=O [PIPERACILLIN]
result: 8 µg/mL

compound: CCC[C@@H]1C[C@@H](C(=O)N[C@@H]([C@H]2O[C@H](SC)[C@H](O)[C@@H](O)[C@H]2O)[C@H](C)Cl)N(C)C1 [CLINDAMYCIN]
result: > 128 µg/mL

compound: O=C(N[C@H](CO)[C@H](O)c1ccc([N+](=O)[O-])cc1)C(Cl)Cl [CHLORAMPHENICOL]
result: 2 µg/mL

compound: CO[C@@]1(NC(=O)Cc2cccs2)C(=O)N2C(C(=O)O)=C(COC(N)=O)CS[C@@H]21 [CEFOXITIN]
result: 16 µg/mL

compound: C[C@@H](O)[C@H]1C(=O)N2C(C(=O)O)=C(SCCNC=N)C[C@H]12 [IMIPENEM ANHYDROUS]
result: 0.5 µg/mL

compound: Cc1ncc([N+](=O)[O-])n1CCO [METRONIDAZOLE]
result: > 128 µg/mL

====

- Tested on: Schaalia odontolytica
- method summary: Antimicrobial activity against Actinomyces odontolyticus after 48 hrs by agar dilution method
- Assay type: functional
readout name: log10(MIC90) (log10 of the value in µg/mL)

compound: C[C@@H](O)[C@H]1C(=O)N2C(C(=O)O)=C(S[C@@H]3CN[C@H](C(=O)N(C)C)C3)[C@H](C)[C@H]12 [MEROPENEM]
numeric value: 0.30

compound: COc1c(N2C[C@@H]3CCCN[C@@H]3C2)c(F)cc2c(=O)c(C(=O)O)cn(C3CC3)c12 [MOXIFLOXACIN]
numeric value: 0.30

compound: C[C@@H](O)[C@H]1C(=O)N2C(C(=O)O)=C(SCCNC=N)C[C@H]12 [IMIPENEM ANHYDROUS]
numeric value: -0.30

compound: O=C(N[C@H](CO)[C@H](O)c1ccc([N+](=O)[O-])cc1)C(Cl)Cl [CHLORAMPHENICOL]
numeric value: 0.30

compound: CO[C@@]1(NC(=O)Cc2cccs2)C(=O)N2C(C(=O)O)=C(COC(N)=O)CS[C@@H]21 [CEFOXITIN]
numeric value: 1.20

compound: CO[C@@]1(NC(=O)C2SC(=C(C(N)=O)C(=O)O)S2)C(=O)N2C(C(=O)O)=C(CSc3nnnn3C)CS[C@@H]21 (some centres undefined) [CEFOTETAN]
numeric value: 1.81

compound: CCN1CCN(C(=O)N[C@@H](C(=O)N[C@@H]2C(=O)N3[C@@H]2SC(C)(C)[C@@H]3C(=O)O)c2ccccc2)C(=O)C1=O [PIPERACILLIN]
numeric value: 0.90
